Target: LMP7 (purified human immunoproteasome) (Homo sapiens, UniProt P28062)
Assay: Determination of LMP7 activity (fluorescence intensity assay, Suc-LLVY-AMC)
Type: biochemical
Details: long incubation (120 min)
observable: IC50

>>> observedmeasurement("CN(CC(=O)N[C@@H](Cc1ccsc1)B(O)O)C(=O)c1ccccc1C(F)(F)F")
"500 to 5000 nM"
>>> observedmeasurement("CCN(CC(=O)N[C@@H](Cc1coc2c(C)cccc12)B(O)O)S(=O)(=O)c1ccc(C)cc1")
"50 to 500 nM"
>>> observedmeasurement("CCN(CCC(=O)N[C@@H](C[C@@H]1COc2ccccc21)B(O)O)C(=O)c1ccc(Cl)cc1")
"< 50 nM"
>>> observedmeasurement("Cc1ccc(S(=O)(=O)N(CC(=O)N[C@@H](C[C@@H]2COc3ccccc32)B(O)O)C(C)C)cc1")
"< 50 nM"

###

Target: LMP7 (purified human immunoproteasome) (Homo sapiens)
Test: Determination of LMP7 activity (fluorescence intensity assay, Suc-LLVY-AMC)
Format: biochemical
Settings: incubation for 20 minutes
# IC50 listing for each entry below
observable: IC50

>>> observedmeasurement("CCN(CCC(=O)N[C@@H](Cc1ccccc1)B(O)O)C(=O)c1ccccc1")
"50 to 500 nM"
>>> observedmeasurement("Cc1ccc(C[C@H](NC(=O)CCN(c2ccccc2)S(C)(=O)=O)B(O)O)cc1")
"< 50 nM"
>>> observedmeasurement("CCN(CC(=O)N[C@@H](Cc1ccc(C)cc1C)B(O)O)S(=O)(=O)c1ccc(C)cc1")
"< 50 nM"
>>> observedmeasurement("CCc1cccc(C[C@H](NC(=O)CCCCS(C)(=O)=O)B(O)O)c1")
"50 to 500 nM"
>>> observedmeasurement("CCN(CCC(=O)N[C@@H](Cc1ccc(C)cc1)B(O)O)S(=O)(=O)CC")
"< 50 nM"
>>> observedmeasurement("CCN(CCC(=O)N[C@@H](Cc1ccc(F)cc1)B(O)O)C(=O)c1ccc(Cl)cc1")
"< 50 nM"
>>> observedmeasurement("CCN(CCC(=O)N[C@@H](Cc1ccc(F)cc1)B(O)O)C(=O)c1ccc(OC)cc1")
"< 50 nM"
>>> observedmeasurement("CCN(CC(=O)N[C@@H](Cc1ccc(C)cc1C)B(O)O)S(=O)(=O)c1cccc(C)c1")
"< 50 nM"

###

Target: LMP7 (purified human immunoproteasome) (Homo sapiens)
Assay: Determination of LMP7 activity (fluorescence intensity assay, Suc-LLVY-AMC)
Type: biochemical
Settings: incubation for 20 minutes
pIC50: −log10 of the molar value.
observable: pIC50

>>> observedmeasurement("CCN(CCC(=O)N[C@@H](Cc1ccc(C)cc1C)B(O)O)C(=O)c1ccc(C)cc1 [Compound No. 19]")
"> 7.30"
>>> observedmeasurement("Cc1ccc(C[C@H](NC(=O)CCN(C)S(=O)(=O)c2ccccc2)B(O)O)cc1 [Compound No. 7]")
"> 7.30"
>>> observedmeasurement("CCN(CC(=O)N[C@@H](Cc1ccc(C)cc1C)B(O)O)S(=O)(=O)c1ccccc1C [Compound No. 29]")
"> 7.30"
>>> observedmeasurement("Cc1ccc(C[C@H](NC(=O)CCN(C(C)C)S(=O)(=O)c2ccccc2)B(O)O)cc1 [Compound No. 6]")
"> 7.30"
>>> observedmeasurement("CCS(=O)(=O)N(CCC(=O)N[C@@H](Cc1ccc(C)cc1)B(O)O)c1ccccc1 [Compound No. 2]")
"> 7.30"
>>> observedmeasurement("CCN(CC(=O)N[C@@H](Cc1ccccc1)B(O)O)C(=O)c1ccccc1 [Compound No. 17]")
"6.30 to 7.30"
>>> observedmeasurement("CCN(CCC(=O)N[C@@H](Cc1ccccc1)B(O)O)C(=O)c1ccccc1C [Compound No. 12]")
"6.30 to 7.30"
>>> observedmeasurement("CCC(=O)N(CC(=O)N[C@@H](Cc1ccsc1)B(O)O)c1ccccc1F [Compound No. 39]")
"5.30 to 6.30"
>>> observedmeasurement("CCN(CC(=O)N[C@@H](Cc1ccc(C)cc1)B(O)O)S(=O)(=O)c1ccccc1 [Compound No. 16]")
"> 7.30"
>>> observedmeasurement("CS(=O)(=O)CCC(=O)N[C@@H](Cc1coc2ccccc12)B(O)O [Compound No. 23]")
"> 7.30"
>>> observedmeasurement("CCN(CCC(=O)N[C@@H](Cc1ccccc1)B(O)O)C(=O)c1cccc(C)c1 [Compound No. 13]")
"6.30 to 7.30"
>>> observedmeasurement("CC(C)N(CCC(=O)N[C@@H](Cc1ccccc1)B(O)O)C(=O)c1ccccc1 [Compound No. 9]")
"6.30 to 7.30"
>>> observedmeasurement("CCC(=O)N(CC(=O)N[C@@H](Cc1ccc(C)cc1C)B(O)O)c1ccccc1 [Compound No. 34]")
"> 7.30"
>>> observedmeasurement("CCN(CCC(=O)N[C@@H](Cc1ccc(F)cc1)B(O)O)C(=O)c1ccc(C#N)cc1 [Compound No. 28]")
"> 7.30"
>>> observedmeasurement("CCc1cccc(C[C@H](NC(=O)CCCS(C)(=O)=O)B(O)O)c1 [Compound No. 21]")
"6.30 to 7.30"
>>> observedmeasurement("CN(CCC(=O)N[C@@H](Cc1ccccc1)B(O)O)C(=O)c1ccccc1 [Compound No. 10]")
"6.30 to 7.30"
>>> observedmeasurement("CCc1cccc(C[C@H](NC(=O)CCS(C)(=O)=O)B(O)O)c1 [Compound No. 20]")
"6.30 to 7.30"
>>> observedmeasurement("CCN(CC(=O)N[C@@H](Cc1ccc(C)cc1C)B(O)O)C(=O)CCl [Compound No. 37]")
"6.30 to 7.30"
>>> observedmeasurement("CCN(CCC(=O)N[C@@H](Cc1ccccc1)B(O)O)C(=O)c1ccc(C)cc1 [Compound No. 14]")
"> 7.30"
>>> observedmeasurement("Cc1ccc(C[C@H](NC(=O)CN(c2ccccc2)S(=O)(=O)c2ccccc2)B(O)O)c(C)c1 [Compound No. 35]")
"> 7.30"
>>> observedmeasurement("Cc1ccc(S(=O)(=O)N(CC(=O)N[C@@H](Cc2ccc(C)cc2C)B(O)O)C(C)C)cc1 [Compound No. 33]")
"> 7.30"
>>> observedmeasurement("Cc1ccc(C[C@H](NC(=O)CCN(C(C)C)S(C)(=O)=O)B(O)O)cc1 [Compound No. 15]")
"6.30 to 7.30"
>>> observedmeasurement("O=C(CCS(=O)(=O)c1ccccc1)N[C@@H](Cc1coc2ccccc12)B(O)O [Compound No. 4]")
"> 7.30"
